Values were extracted from patent US20090170886A1.

# System tested: androgen receptor in MDA-MB453-MMTV clone 54-19 cells (Homo sapiens)
# Assay: AR Antagonist Cell Assay (MMTV-luciferase reporter, DHT-induced)
# Stated conditions: MDA-MB453-MMTV clone 54-19, 100 pM DHT, 17 hr; mean of multiple tests
pIC50: −log10 of the molar value.
Reported pIC50 values for a set of compounds

Form field, pIC50 with androgen receptor in MDA-MB453-MMTV clone 54-19 cells (Homo sapiens), item CCCCCCC(Oc1ccc(C#N)c(C(F)(F)F)c1)c1ccccc1 (centres unmarked) : < 6.00

Form field, pIC50 with androgen receptor in MDA-MB453-MMTV clone 54-19 cells (Homo sapiens), item "CCOc1ccccc1COc1ccc(C#N)c(Cl)c1" : < 6.00

Form field, pIC50 with androgen receptor in MDA-MB453-MMTV clone 54-19 cells (Homo sapiens), item "CC(C)(Oc1ccc(C#N)c(Cl)c1)c1ccccc1" : < 6.00

Form field, pIC50 with androgen receptor in MDA-MB453-MMTV clone 54-19 cells (Homo sapiens), item "Cc1ccccc1COc1ccc(C#N)c(Cl)c1" : < 6.00

Form field, pIC50 with androgen receptor in MDA-MB453-MMTV clone 54-19 cells (Homo sapiens), item N#Cc1ccc(OC(Cc2ccccc2)c2ccccn2)cc1C(F)(F)F (centres unmarked) : < 6.00

---

# System tested: hAR (human androgen receptor, baculovirus/Sf9 generated extracts) (Homo sapiens)
# Construct: made in house; host or cells: baculovirus/Sf9 insect cells (crude extract)
# Sequence (P10275 whole entry): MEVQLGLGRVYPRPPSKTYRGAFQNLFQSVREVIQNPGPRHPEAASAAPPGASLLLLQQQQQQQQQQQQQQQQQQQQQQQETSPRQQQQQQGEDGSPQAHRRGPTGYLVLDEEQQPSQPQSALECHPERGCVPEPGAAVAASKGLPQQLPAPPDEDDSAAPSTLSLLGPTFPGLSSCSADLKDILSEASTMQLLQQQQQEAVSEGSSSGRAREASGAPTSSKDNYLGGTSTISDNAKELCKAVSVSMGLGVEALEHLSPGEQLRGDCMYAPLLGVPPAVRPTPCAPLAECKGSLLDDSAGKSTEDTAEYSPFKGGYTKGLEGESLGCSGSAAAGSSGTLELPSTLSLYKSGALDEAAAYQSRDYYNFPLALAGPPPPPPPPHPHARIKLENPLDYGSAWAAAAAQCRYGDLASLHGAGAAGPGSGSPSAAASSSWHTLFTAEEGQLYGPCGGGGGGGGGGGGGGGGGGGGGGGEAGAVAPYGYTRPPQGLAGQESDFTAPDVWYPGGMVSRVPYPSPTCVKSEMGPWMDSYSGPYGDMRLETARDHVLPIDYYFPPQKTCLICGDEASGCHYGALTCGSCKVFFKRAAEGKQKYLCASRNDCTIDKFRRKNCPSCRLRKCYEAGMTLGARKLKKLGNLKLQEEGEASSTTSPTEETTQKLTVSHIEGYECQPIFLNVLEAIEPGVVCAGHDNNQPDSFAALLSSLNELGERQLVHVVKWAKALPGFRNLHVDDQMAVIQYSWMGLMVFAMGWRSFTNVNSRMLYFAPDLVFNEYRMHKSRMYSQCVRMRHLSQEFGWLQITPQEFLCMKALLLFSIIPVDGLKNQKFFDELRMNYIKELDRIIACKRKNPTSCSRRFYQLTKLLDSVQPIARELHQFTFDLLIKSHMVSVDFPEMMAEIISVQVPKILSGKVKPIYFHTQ
# Assay: AR Binding Assay (competitive binding with 3H-DHT tracer)
# Stated conditions: AR Binding IC50, hAR extract, 1 nM 3H-DHT, one hour at 4° C.; mean of multiple tests
Recorded endpoint: IC50 (nM)
Give the value, in units of nM, as a plain number.

Molecule	System tested	Unit of measurement	IC50
CC(C)CC(Oc1ccc(C#N)c(C(F)(F)F)c1)c1cccc(O)c1 (racemic) [Example 20]	hAR (human androgen receptor, baculovirus/Sf9 generated extracts) (Homo sapiens)	nM	183

For reference, reported IC50 for CCC(Oc1ccc(C#N)c(C(F)(F)F)c1)c1ccccn1 (stereo not drawn) stands at 148

For reference, reported IC50 for CC(Oc1ccc(C#N)c(C(F)(F)F)c1)c1ccccc1 (racemic) [Example 1] stands at 10

For reference, reported IC50 for CC(Oc1ccc(C#N)c(Cl)c1)c1ccccc1 (stereo not drawn) stands at 13

For reference, reported IC50 for CCCC(Oc1ccc(C#N)c(C(F)(F)F)c1)c1cccc(O)c1 (single isomer, unassigned; (+)) [Example 15] stands at 20

For reference, reported IC50 for CCCC(Oc1ccc(C#N)c(C(F)(F)F)c1)c1cncc(OCOCCOC)c1 (stereo not drawn) stands at 74

---

# System tested: androgen receptor in MDA-MB453-MMTV clone 54-19 cells (Homo sapiens, UniProt P10275)
# Sequence (P10275 whole entry Q868H, form open): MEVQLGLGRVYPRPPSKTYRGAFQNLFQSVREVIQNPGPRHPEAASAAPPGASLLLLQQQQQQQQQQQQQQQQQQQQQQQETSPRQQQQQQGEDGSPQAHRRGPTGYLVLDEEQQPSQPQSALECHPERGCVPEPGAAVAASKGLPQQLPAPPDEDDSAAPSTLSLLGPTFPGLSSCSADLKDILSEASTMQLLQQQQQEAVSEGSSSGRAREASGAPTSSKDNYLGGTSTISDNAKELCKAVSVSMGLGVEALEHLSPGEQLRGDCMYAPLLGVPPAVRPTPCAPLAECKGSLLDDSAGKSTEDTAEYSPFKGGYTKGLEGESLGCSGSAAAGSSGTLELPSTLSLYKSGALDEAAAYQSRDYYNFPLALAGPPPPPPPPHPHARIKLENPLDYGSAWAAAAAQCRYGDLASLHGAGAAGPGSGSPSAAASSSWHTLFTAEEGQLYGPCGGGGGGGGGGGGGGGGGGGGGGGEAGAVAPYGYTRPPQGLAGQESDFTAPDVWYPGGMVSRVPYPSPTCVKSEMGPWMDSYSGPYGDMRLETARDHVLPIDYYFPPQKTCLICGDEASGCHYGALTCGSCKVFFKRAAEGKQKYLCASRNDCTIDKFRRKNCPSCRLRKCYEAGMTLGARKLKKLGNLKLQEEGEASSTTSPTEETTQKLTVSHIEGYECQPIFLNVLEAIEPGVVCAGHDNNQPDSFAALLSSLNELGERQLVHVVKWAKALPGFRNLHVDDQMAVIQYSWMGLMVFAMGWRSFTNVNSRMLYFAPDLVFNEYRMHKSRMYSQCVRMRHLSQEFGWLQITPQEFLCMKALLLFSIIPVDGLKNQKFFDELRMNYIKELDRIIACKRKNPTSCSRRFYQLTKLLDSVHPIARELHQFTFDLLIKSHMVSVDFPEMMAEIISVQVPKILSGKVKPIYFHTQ
# Assay: AR Antagonist Cell Assay (MMTV-luciferase reporter, DHT-induced)
# Stated conditions: MDA-MB453-MMTV clone 54-19, 100 pM DHT, 17 hr; mean of multiple tests
pIC50: −log10 of the molar value.
Recorded endpoint: pIC50

// below: answered compounds
Compound	System tested	pIC50
CCCCC(Oc1ccc(C#N)c(C(F)(F)F)c1)c1ccccn1 (stereo not drawn)	androgen receptor in MDA-MB453-MMTV clone 54-19 cells (Homo sapiens, UniProt P10275)	< 6.18
Cc1cccc(C(C)Oc2ccc(C#N)c(Cl)c2)c1 (stereo not drawn)	androgen receptor in MDA-MB453-MMTV clone 54-19 cells (Homo sapiens, UniProt P10275)	< 6.00
CCOc1ccccc1COc1ccc(C#N)c(C(F)(F)F)c1	androgen receptor in MDA-MB453-MMTV clone 54-19 cells (Homo sapiens, UniProt P10275)	< 6.00
Cc1cccc(COc2ccc(C#N)c(Cl)c2)c1	androgen receptor in MDA-MB453-MMTV clone 54-19 cells (Homo sapiens, UniProt P10275)	< 6.00
CC(C)(Oc1ccc(C#N)cc1Cl)c1ccccc1	androgen receptor in MDA-MB453-MMTV clone 54-19 cells (Homo sapiens, UniProt P10275)	< 6.00

Form field, pIC50 with androgen receptor in MDA-MB453-MMTV clone 54-19 cells (Homo sapiens, UniProt P10275), item Cc1cccc(C(CC(C)C)Oc2ccc(C#N)c(C(F)(F)F)c2)n1 (stereo not drawn) : < 6.00

Form field, pIC50 with androgen receptor in MDA-MB453-MMTV clone 54-19 cells (Homo sapiens, UniProt P10275), item CCC(Oc1ccc(C#N)c(C(F)(F)F)c1)c1cccc(O)c1 (racemic) [Example 11] : < 6.00

Form field, pIC50 with androgen receptor in MDA-MB453-MMTV clone 54-19 cells (Homo sapiens, UniProt P10275), item COc1ccccc1C(C)Oc1ccc(C#N)c(C(F)(F)F)c1 (stereo not drawn) : < 6.00

Form field, pIC50 with androgen receptor in MDA-MB453-MMTV clone 54-19 cells (Homo sapiens, UniProt P10275), item CCC(Oc1ccc(C#N)c(C(F)(F)F)c1)c1cccc(O)c1 (single isomer, unassigned; (+)) [Example 12] : < 6.00
